- ASSAYED_SYSTEM: anti-kynurenine antibody (monoclonal Mouse IgG1a k chain, clone 3D4-F2)
- Construct: biotinylated whole antibody on streptavidin magnetic beads
- ASSAY_INFO: magnetic bead immunoassay, fluorescence of unbound conjugate in supernatant
QUANTITY_KIND: Kd

- CCN(CC)c1ccc2c(-c3ccccc3C(=O)OCc3cn(CCOCCOCCOCCNC(=O)[C@@H](N)CC(=O)c4ccccc4N)nn3)c3ccc(N(CC)CC)cc3[o+]c2c1: 5.9 µM

====

- ASSAYED_SYSTEM: anti-kynurenine antibody (monoclonal Mouse IgG1a k chain, clone 3D4-F2)
- Construct: biotinylated whole antibody on streptavidin magnetic beads
- ASSAY_INFO: competitive magnetic bead immunoassay, displacement of fluorescent conjugate […] in PBS
pIC50: −log10 of the molar value.
QUANTITY_KIND: pIC50

• Nc1ccccc1C(=O)C[C@H](N)C(=O)O = 5.40
